B1: library; numbered along this chain (parent)
chain: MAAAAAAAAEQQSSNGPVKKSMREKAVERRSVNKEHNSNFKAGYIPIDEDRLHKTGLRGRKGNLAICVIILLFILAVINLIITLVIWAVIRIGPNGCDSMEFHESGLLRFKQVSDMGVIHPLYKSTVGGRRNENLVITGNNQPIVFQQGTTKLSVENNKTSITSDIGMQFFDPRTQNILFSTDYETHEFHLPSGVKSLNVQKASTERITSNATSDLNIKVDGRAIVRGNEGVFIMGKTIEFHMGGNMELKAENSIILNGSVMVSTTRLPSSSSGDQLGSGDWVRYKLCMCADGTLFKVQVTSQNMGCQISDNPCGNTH

- Variants of: B1
- METHOD_DESCRIPTION: SGCB cell-surface expression functional score (HA stain, bin4 vs bin1, normalised to synonymous) (log10 ratio); higher = more cell-surface SGCB (functional)
Measured SGCB cell-surface expression functional score (log10) determines class: range A = under -0.4, range B = from -0.4 up to -0.06, range C = -0.06 and over

Class label required: L191F
range B

Lab note: which band did G222P land in?
range A

Form: Item = A212Q ; Class = ?
range C

Into which category would you place L257C ?
range B

Category of I178S :
range A

For the record N246L , report the class its SGCB cell-surface expression functional score (log10) corresponds to.
range C

# classify by SGCB cell-surface expression functional score (log10) band: I256K
range C

Categorize the following entry: H187L
range A

Please classify: V113M
range B

Entry H190A belongs to which category?
range B

Any idea which band C307R is in?
range B

Form field 'band' for V261C
range C
